Origin of the recorded values: patent US20210380675A1

- test.system: T1, human IL-36α(R12), truncated (human, UniProt Q9UHA7 6-158)
- T1 construct: Untagged after removal of the His-SUMO tag; also called hIL-36alpha
- T1 chain: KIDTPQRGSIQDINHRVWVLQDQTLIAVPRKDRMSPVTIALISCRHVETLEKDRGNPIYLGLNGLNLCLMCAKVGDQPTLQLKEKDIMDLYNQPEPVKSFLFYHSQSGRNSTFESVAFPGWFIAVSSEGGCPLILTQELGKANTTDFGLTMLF
- measurement.protocol: SPR, Biacore T200, antibody on chip, IL-36 as analyte, 1:1 Langmuir fit
# strict inequality: koff < 0.0009 s⁻¹ yields TRUE, everything else yields FALSE

144L124B (antibody, V domains shown, Mouse monoclonal from hybridoma; mouse IgG heavy and lambda light chain; Same VH and VL as 144L180A) VH: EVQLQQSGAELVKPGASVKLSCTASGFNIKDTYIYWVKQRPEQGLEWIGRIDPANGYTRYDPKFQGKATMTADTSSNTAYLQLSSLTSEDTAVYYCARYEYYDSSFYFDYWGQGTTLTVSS VL: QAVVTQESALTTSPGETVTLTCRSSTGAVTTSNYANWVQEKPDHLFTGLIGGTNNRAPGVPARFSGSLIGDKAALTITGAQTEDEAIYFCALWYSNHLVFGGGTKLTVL	FALSE
m/h 144D666C (antibody, human IgG1, lambda, V domains shown, Mouse VH/VL joined to human IgG1 constant and human Ig lambda (IGLC2) constant; also called chimeric mouse/human 144D666C) VH: EVQLQQSGAELVKPGASVKLTCTASGFNIKDTYIYWVKQRPAQGLEWIGRIDPANAYTKFDPKFQGKATLTADTSSNTAYLQLSSLTSEDTAVYYCTRFHWYGSSFFFDYWGQGTTLTVSS VL: QAVVTQESALTTSPGETVTLTCRSSTGAVTTSNYANWVQEKPDHLFTGLIGGTDNRPPGVPARFSGSLIGDKAALTITGAQTEDEAIYFCALWYSNLWVFGGGTKLTVLG	FALSE
chimeric m/h 144D464A (antibody, human IgG1, lambda, V domains shown, Mouse VH/VL joined to human IgG1 constant and human Ig lambda (IGLC2) constant; also called chimeric mouse/human (m/h) 144D464A antibody) VH: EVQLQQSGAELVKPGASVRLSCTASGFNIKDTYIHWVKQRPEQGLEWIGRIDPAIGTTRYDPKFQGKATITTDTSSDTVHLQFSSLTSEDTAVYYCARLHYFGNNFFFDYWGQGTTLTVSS VL: QAVVTQESALTTSPGEAVTLTCRSSSGAVTTSNYANWVQEKPDHLFAGLIGGTNDRAPGVPARFSGSLIGDKAALTITGAQTEDEAIYFCALWFSNHWVFGGGTKLTVLG	TRUE
144D464A (antibody, V domains shown, Mouse monoclonal from hybridoma; mouse IgG heavy and lambda light chain; also called mouse antibody 144D464A) VH: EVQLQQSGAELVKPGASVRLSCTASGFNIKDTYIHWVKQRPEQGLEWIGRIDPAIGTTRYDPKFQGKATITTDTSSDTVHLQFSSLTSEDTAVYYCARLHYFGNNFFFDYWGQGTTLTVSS VL: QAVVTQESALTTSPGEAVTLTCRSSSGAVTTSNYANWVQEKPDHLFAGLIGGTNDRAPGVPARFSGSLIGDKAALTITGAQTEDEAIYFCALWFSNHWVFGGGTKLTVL	TRUE

Now for another entry.
# TODO verify koff < 0.0009 s⁻¹ strictly for this binder: 144D666C (antibody, V domains shown, Mouse monoclonal from hybridoma; mouse IgG heavy and lambda light chain) VH: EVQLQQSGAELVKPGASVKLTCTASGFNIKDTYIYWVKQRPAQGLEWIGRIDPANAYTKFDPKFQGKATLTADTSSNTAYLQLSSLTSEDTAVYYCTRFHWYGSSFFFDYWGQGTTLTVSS VL: QAVVTQESALTTSPGETVTLTCRSSTGAVTTSNYANWVQEKPDHLFTGLIGGTDNRPPGVPARFSGSLIGDKAALTITGAQTEDEAIYFCALWYSNLWVFGGGTKLTVL
FALSE
